Tested on: Aβ40 in conditioned medium of cells stably expressing Amyloid Precursor Protein (APP)
Test: In vitro BACE cell-based assay (Aβ40 in conditioned medium, sandwich ELISA)
Details: Homo sapiens, HEK293, average IC50; read-out: HEK cell assay
experimental-readout: pIC50
Answers are plain numbers, as −log10 of the molar value.

Reference set, count: 5
INSERT INTO measurements (compound, observed) VALUES
  ('COc1ccc(-c2cc(F)c3c(c2)[C@]2(COC(N)=N2)c2cc(-c4cncc(F)c4)ccc2O3)nn1', 8.09),
  ('NC1=N[C@@]2(CS1)c1cc(-c3cccnc3F)ccc1Oc1c2cc(-c2ccncc2)nc1F', 7.85),
  ('Cc1cc(-c2cc3c(cn2)Oc2ccc(-c4cccnc4F)cc2[C@@]32COC(N)=N2)on1', 7.20),
  ('CC1(C#Cc2cnc3c(c2)[C@]2(COC(N)=N2)c2cc(-c4ccc(F)c(C#N)c4)ccc2O3)COC1', 7.36),
  ('CC1(C)CC(c2cnc3c(c2)[C@]2(CSC(N)=N2)c2cc(-c4cccnc4F)ccc2O3)=CCO1', 7.77);

Required: pIC50, one value per compound below.
1. NC1=N[C@@]2(CS1)c1cc(-c3cccnc3)ccc1Oc1c(F)cc(C3=CCOCC3)cc12
2. NC1=N[C@@]2(CS1)c1cc(-c3cccnc3F)ccc1Oc1c(F)cc(N3CCOCC3)cc12
3. NC1=N[C@@]2(CO1)c1cc(-c3cccnc3F)ccc1Oc1ncc([C@@H]3CCCOC3)cc12

OUT:
1. 8.10
2. 8.00
3. 7.40

// for each compound in input: emit pIC50
1. Cc1ccn(-c2cnc3c(c2)[C@]2(COC(N)=N2)c2cc(-c4cccnc4F)ccc2O3)n1
2. Cc1ccc(-c2cnc3c(c2)[C@]2(CSC(N)=N2)c2cc(-c4cnccc4F)ccc2O3)cn1

OUT:
1. 6.92
2. 8.00

====

Target: Beta Secretase enzyme (BACE) (Homo sapiens, UniProt P56817)
Sequence (P56817 46-501, species assumed): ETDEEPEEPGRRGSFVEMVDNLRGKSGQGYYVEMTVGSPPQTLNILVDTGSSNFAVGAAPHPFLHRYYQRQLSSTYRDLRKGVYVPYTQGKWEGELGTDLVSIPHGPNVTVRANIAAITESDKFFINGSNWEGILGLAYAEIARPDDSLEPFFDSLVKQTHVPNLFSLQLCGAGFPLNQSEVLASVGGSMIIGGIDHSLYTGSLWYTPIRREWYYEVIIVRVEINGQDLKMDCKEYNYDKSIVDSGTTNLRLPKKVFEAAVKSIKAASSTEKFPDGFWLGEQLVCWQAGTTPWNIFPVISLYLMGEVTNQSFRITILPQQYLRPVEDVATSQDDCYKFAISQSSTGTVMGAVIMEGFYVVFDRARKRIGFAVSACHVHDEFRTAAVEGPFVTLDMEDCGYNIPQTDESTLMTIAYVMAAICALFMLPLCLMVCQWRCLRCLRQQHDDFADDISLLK
Test: In vitro enzymatic BACE FRET (fluorescence resonance energy transfer) assay
Format: biochemical
Conditions: BACE 1 FRET assay (uM)
experimental-readout: IC50 (µM)
Numbers only, in µM.

Examples with answers:
INSERT INTO results (compound, observed) VALUES
  ('NC1=N[C@@]2(CO1)c1cc(-c3cccnc3F)c(F)cc1Oc1c(F)cc(C3=CCOCC3)cc12 (single isomer, unassigned)', 0.0003),
  ('COc1nc(C2=CCOCC2)cc2c1Oc1ccc(-c3cccnc3F)cc1[C@@]21COC(N)=N1', 0.0007),
  ('NC1=N[C@@]2(CO1)c1cc(-c3cccnc3F)ccc1Oc1cnc(N3CCC(F)(F)C3)cc12', 0.0006);

Answer for every listed entry: what is its IC50? The entries follow.
1. NC1=N[C@@]2(CO1)c1cc(-c3c(F)ccnc3F)ccc1Oc1cnc(C3=CCOCC3)cc12
2. NC1=N[C@@]2(CO1)c1cc(-c3cccnc3F)ccc1Oc1cnc(N3CCOCC3)cc12
3. CC(C)(C)/C=C/c1ccc2c(c1)[C@]1(COC(N)=N1)c1cc(-c3cncnc3)c(F)cc1O2
4. NC1=N[C@@]2(CO1)c1cc(-c3cccnc3F)ccc1Oc1cnc(N3CCC(F)(F)CC3)cc12

OUT:
[0.0007, 0.0013, 0.0014, 0.0007]

====

Molecular target: Beta Secretase enzyme (BACE) (Homo sapiens, UniProt P56817)
Assay: In vitro enzymatic BACE FRET (fluorescence resonance energy transfer) assay
Assay type: biochemical
Details: average IC50, enzyme assay; read-out: BACE 1 FRET assay
experimental-readout: pIC50
One number for each entry, as −log10 of the molar value.

INSERT INTO assay_data (molecule, experimental_readout, observed) VALUES
  ('CC1(C)CC(c2cnc3c(c2)[C@]2(COC(N)=N2)c2c(ccc(-c4cncnc4)c2F)O3)=CCO1 [Example 353]', 'pIC50', 8.92),
  ('NC1=N[C@@]2(CO1)c1cc(-c3cncc(F)c3)ccc1Oc1c(F)cc([C@@H]3CCOC3)cc12 [Example 297]', 'pIC50', 8.28),
  ('CC1(C#Cc2cnc3c(c2)[C@]2(COC(N)=N2)c2cc(-c4cncc(Cl)c4)ccc2O3)COC1 [Example 186]', 'pIC50', 9.30),
  ('Cn1ccc(-c2cnc3c(c2)[C@]2(COC(N)=N2)c2cc(C#CC(C)(C)C)ccc2O3)n1 [Example 180]', 'pIC50', 7.31),
  ('NC1=N[C@@]2(CO1)c1cc(-c3cccnc3F)ccc1Oc1c(F)cc(-n3cccn3)cc12 [Example 691]', 'pIC50', 8.70);

Kindly give each listed record's pIC50.
1. Cn1cc(-c2cc(F)c3c(c2)[C@]2(COC(N)=N2)c2cc(-c4cccc(C#N)c4)ccc2O3)cn1 [Example 563]
2. CC#Cc1cncc(-c2ccc3c(c2)[C@@]2(COC(N)=N2)c2cc(Cl)nc(F)c2O3)c1 [Example 761]

OUT:
[8.89, 9.05]

====

System: Aβ40 in conditioned medium of cells stably expressing Amyloid Precursor Protein (APP)
Experiment: In vitro BACE cell-based assay (Aβ40 in conditioned medium, sandwich ELISA)
Conditions: Homo sapiens, HEK293, average IC50; read-out: HEK cell assay
Procedure: In Vitro BACE Cell-Based Assay The cell-based assay measures inhibition or reduction of Aβ40 in conditioned medium of test compound treated cells expressing amyloid precursor protein. Cells stably expressing Amyloid Precursor Protein (APP) were plated at a density of 40K cells/well in 96 well plates (Costar). […] The IC50 of the compound was calculated from the percent of control or percent inhibition of Aβ 40 as a function of the concentration of the test compound. […]
experimental-readout: IC50 (µM)
Numbers only, in µM.

State recorded IC50 for all listed compounds.
1. CC1(COc2cc3c(cc2F)Oc2ccc(-c4ccnc(Cl)c4)cc2[C@@]32COC(N)=N2)COC1
2. N#Cc1cccc(-c2ccc3c(c2)[C@@]2(COC(N)=N2)c2cc(C4=CCOCC4)ccc2O3)c1

OUT:
1. 0.255
2. 0.0631

====

System: Aβ40 in conditioned medium of cells stably expressing Amyloid Precursor Protein (APP)
Test: In vitro BACE cell-based assay (Aβ40 in conditioned medium, sandwich ELISA)
Settings: Homo sapiens, HEK293, average IC50; read-out: HEK cell assay
Use IC50 to assign classes; range list: range A (below 0.01 µM), range B (0.01 µM to below 0.3 µM), range C (0.3 µM or more)

Example cases with answers are listed next.
INSERT INTO measurements (compound, assigned_category) VALUES
  ('CC1(C)C=C(c2cnc3c(c2)[C@]2(CSC(N)=N2)c2cc(-c4ccc(F)c(C#N)c4)ccc2O3)CCO1 [Example 784]', 'range B'),
  ('Cc1nc(F)ccc1-c1ccc2c(c1)[C@@]1(COC(N)=N1)c1cc(-c3ccnc(F)c3)ncc1O2 [Example 252]', 'range C'),
  ('Cn1cc(-c2cc3c(cc2F)Oc2ccc(-c4cccc(Cl)c4)cc2[C@@]32COC(N)=N2)cn1 [Example 313]', 'range B'),
  ('CC(C)(O)C#Cc1ccc2c(c1)[C@]1(COC(N)=N1)c1cc(-c3cncnc3)c(F)cc1O2 [Example 336]', 'range B'),
  ('NC1=N[C@@]2(CO1)c1cc(-c3cncc(C#CCO)c3)ccc1Oc1cnc(C3=CCCOC3)cc12 [Example 827]', 'range A'),
  ('NC1=N[C@]2(CO1)c1cc(N3CC[C@@H](F)C3)cc(F)c1Oc1ccc(-c3cccnc3F)c(F)c12 [Example 1053]', 'range B');

IN: // return the class label for CC1(C#Cc2cc3c(c(F)n2)Oc2ccc(-c4cccnc4F)cc2[C@]32COC(N)=N2)COC1 [Example 737]
OUT: range C

IN: Category of Cc1cnc(-c2cc(F)c3c(c2)[C@]2(COC(N)=N2)c2cc(-c4cccnc4F)ccc2O3)nc1 [Example 226] :
OUT: range B

IN: Hi there! Could you help me figure out the category for CC1(C#Cc2cnc3c(c2)[C@]2(COC(N)=N2)c2cc(-c4ccc(F)nc4)ccc2O3)COC1 [Example 167] please?
OUT: range B

IN: // return the class label for CC1(C)CC(c2cnc3c(c2)[C@@]2(COC(N)=N2)c2c(ccc(-c4cccnc4F)c2F)O3)=CCO1 [Example 351]
OUT: range C

IN: Returns: class label. Input: NC1=N[C@@]2(CO1)c1cc(-c3cncc(F)c3)ccc1Oc1c(F)cc(C3=CCOC3)cc12 [Example 288]
OUT: range A

IN: Lab note: sort NC1=N[C@@]2(CO1)c1cc(-c3cncc(Cl)c3)ccc1Oc1c(F)cc(OCC3CCOCC3)cc12 [Example 211] into the matching IC50 band.
OUT: range A

====

Biological target: Beta Secretase enzyme (BACE) (Homo sapiens)
Test: In vitro enzymatic BACE FRET (fluorescence resonance energy transfer) assay
Assay type: biochemical
Settings: average IC50, enzyme assay; read-out: BACE 1 FRET assay
Friendly reminder: IC50 below 5 nM is 1.0, at or above is 0.0.

Completed entries (count: 10):
INSERT INTO results (molecule, assigned_category) VALUES
  ('NC1=N[C@@]2(CO1)c1cc(-c3cccnc3F)ccc1Oc1c(F)cc([C@H]3CCCOC3)cc12', 1.0),
  ('CC1(C#Cc2cnc3c(c2)[C@]2(COC(N)=N2)c2c(ccc(-c4ccc(F)nc4)c2F)O3)COC1', 1.0),
  ('NC1=N[C@@]2(CS1)c1cc(-c3cccnc3F)ccc1Oc1c(F)cc(-c3ccnc(F)c3)cc12', 1.0),
  ('NC1=N[C@@]2(CS1)c1cc(-c3cncc(F)c3)ccc1Oc1cnc(Cl)cc12', 0.0),
  ('NC1=N[C@]2(CO1)c1cc(C3=CCCOC3)cc(F)c1Oc1ccc(-c3cncnc3)c(F)c12', 0.0),
  ('CC1(C)C[C@H](c2cnc3c(c2)[C@]2(COC(N)=N2)c2cc(-c4cccnc4F)ccc2O3)CCO1 [Example 453]', 1.0),
  ('CC1(C#Cc2cnc3c(c2)[C@]2(COC(N)=N2)c2cc(-c4cccc(Cl)c4F)ccc2O3)COC1', 1.0),
  ('NC1=N[C@@]2(CO1)c1cc(OCc3ccccn3)ccc1Oc1ncc(C3=CCOCC3)cc12', 0.0),
  ('NC1=N[C@@]2(CO1)c1cc(-c3cccnc3F)ccc1Oc1cnc(-c3cncs3)cc12', 1.0),
  ('NC1=N[C@]2(CS1)c1cc(-c3cccnc3F)c(F)cc1Oc1c(F)cc(N3CCOCC3)cc12', 0.0);

IN: Does the reported IC50 of NC1=N[C@@]2(CO1)c1cc(-c3cncc(N4CCOCC4)c3)ccc1Oc1c(F)cc(N3CCOCC3)cc12 stay below 5 nM?
OUT: 0.0

IN: # strict comparison: is reported IC50 < 5 nM? input = NC1=N[C@@]2(CS1)c1cc(-c3cccnc3)ccc1Oc1c(F)cc(C3=CCCOC3)cc12
OUT: 1.0

IN: IC50 strictly < 5 nM for this molecule? Cc1ncncc1-c1ccc2c(c1)[C@@]1(COC(N)=N1)c1cc(-c3ccnc(F)c3)ncc1O2
OUT: 0.0

IN: I wonder whether NC1=N[C@@]2(CO1)c1cc(-c3cncc(Cl)c3)ccc1Oc1c(F)cc(OCC3CCOCC3)cc12 has IC50 below 5 nM. Can you tell?
OUT: 1.0

IN: IC50 under 5 nM? Item: CC(C)(O)CCc1cc(F)c2c(c1)[C@]1(COC(N)=N1)c1cc(-c3cccnc3F)ccc1O2
OUT: 1.0

IN: Regarding NC1=N[C@]2(CO1)c1cc(C3=CCCOC3)cc(F)c1Oc1ccc(-c3cccnc3F)c(F)c12 , kindly confirm whether its IC50 is beneath 5 nM.
OUT: 1.0

IN: Record NC1=N[C@]2(CO1)c1cc(I)ccc1Oc1ncc(Br)cc12 : is its IC50 strictly below 5 nM?
OUT: 0.0

IN: Check if IC50 falls below 5 nM for NC1=N[C@@]2(CO1)c1cc(-c3cccnc3F)ccc1Oc1c(F)cc(-c3ccc(F)nc3)cc12 .
OUT: 1.0

IN: Lab log: compare recorded IC50 with 5 nM; is it strictly lower for NC1=N[C@@]2(CO1)c1cc(-c3cccnc3F)ccc1Oc1ncc(N3CCC(F)(F)C3)cc12 ?
OUT: 1.0

IN: Is 5 nM strictly greater than the molecule's reported IC50? molecule: NC1=N[C@@]2(CO1)c1cc(-c3cncnc3)ccc1Oc1cnc(-c3ccnc(F)c3)cc12
OUT: 1.0

IN: Determine if CC1(C#Cc2cc3c(cn2)Oc2ccc(-c4cc(Cl)cnc4F)cc2[C@@]32COC(N)=N2)COC1 shows IC50 strictly lower than 5 nM.
OUT: 1.0

Each recorded value in this set is attributed to patent US8883782B2.
